B1: Phosphoglycerate kinase, P00560 (parent)
chain: MSLSSKLSVQDLDLKDKRVFIRVDFNVPLDGKKITSNQRIVAALPTIKYVLEHHPRYVVLASHLGRPNGERNEKYSLAPVAKELQSLLGKDVTFLNDCVGPEVEAAVKASAPGSVILLENLRYHIEEEGSRKVDGQKVKASKEDVQKFRHELSSLADVYINDAFGTAHRAHSSMVGFDLPQRAAGFLLEKELKYFGKALENPTRPFLAILGGAKVADKIQLIDNLLDKVDSIIIGGGMAFTFKKVLENTEIGDSIFDKAGAEIVPKLMEKAKAKGVEVVLPVDFIIADAFSADANTKTVTDKEGIPAGWQGLDNGPESRKLFAATVAKAKTIVWNGPPGVFEFEKFAAGTKALLDEVVKSSAAGNTVIIGGGDTATVAKKYGVTDKISHVSTGGGASLELLEGKELPGVAFLSEKK

# Variants of: B1
# protocol conditions: Saccharomyces cerevisiae (strain ATCC 204508 / S288c); pH 7.5; 25 °C; GdnHCl; Fluorescence; Sodium phosphate 20 mM; structure 3PGK; whole UniProt chain shown

variant string | denaturant m value
W334Y | 12.4 kcal/mol/M
Y49W W309Y | 12.7 kcal/mol/M
L400W | 10.7 kcal/mol/M
W309Y | 14.8 kcal/mol/M
